Target: Butyrylcholinesterase (Rattus norvegicus)
Sequence (Q9JKC1 whole entry): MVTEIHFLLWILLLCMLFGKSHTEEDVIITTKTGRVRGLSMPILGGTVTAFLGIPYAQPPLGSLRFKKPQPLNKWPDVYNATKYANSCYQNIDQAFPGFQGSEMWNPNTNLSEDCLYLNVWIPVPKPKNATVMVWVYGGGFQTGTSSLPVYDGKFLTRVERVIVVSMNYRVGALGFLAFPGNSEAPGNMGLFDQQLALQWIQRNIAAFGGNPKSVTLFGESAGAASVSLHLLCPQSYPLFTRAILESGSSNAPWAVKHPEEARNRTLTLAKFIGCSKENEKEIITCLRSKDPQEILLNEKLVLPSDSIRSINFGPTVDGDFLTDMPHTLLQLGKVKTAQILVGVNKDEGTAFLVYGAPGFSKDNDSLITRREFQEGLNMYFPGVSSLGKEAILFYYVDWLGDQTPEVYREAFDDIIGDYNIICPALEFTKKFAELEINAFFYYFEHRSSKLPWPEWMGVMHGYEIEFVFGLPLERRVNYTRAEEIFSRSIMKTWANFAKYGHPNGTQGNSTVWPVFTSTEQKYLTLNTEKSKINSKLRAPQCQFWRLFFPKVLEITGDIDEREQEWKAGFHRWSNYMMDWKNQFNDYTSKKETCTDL
Experiment: Inhibition of rat serum Butyrylcholine esterase using butyrylthiocholine as substrate incubated for 15 mins by DTNB reagent based Ellman's method
PARAMETER MEASURED: IC50

// IC50 lookup, molecule = O=c1cc(-c2ccc(O)cc2)oc2cc(O)cc(O)c12 , result: > 50 µM

// IC50 lookup, molecule = O=c1c(-c2ccc(O)cc2)coc2cc(O)cc(O)c12 , result: > 50 µM

// IC50 lookup, molecule = O=C1CC(c2ccc(O)cc2)Oc2cc(O)cc(O)c21 (stereo not drawn) , result: > 50 µM

---

Target: Acetylcholinesterase (Rattus norvegicus, UniProt P37136)
Sequence (P37136 whole entry): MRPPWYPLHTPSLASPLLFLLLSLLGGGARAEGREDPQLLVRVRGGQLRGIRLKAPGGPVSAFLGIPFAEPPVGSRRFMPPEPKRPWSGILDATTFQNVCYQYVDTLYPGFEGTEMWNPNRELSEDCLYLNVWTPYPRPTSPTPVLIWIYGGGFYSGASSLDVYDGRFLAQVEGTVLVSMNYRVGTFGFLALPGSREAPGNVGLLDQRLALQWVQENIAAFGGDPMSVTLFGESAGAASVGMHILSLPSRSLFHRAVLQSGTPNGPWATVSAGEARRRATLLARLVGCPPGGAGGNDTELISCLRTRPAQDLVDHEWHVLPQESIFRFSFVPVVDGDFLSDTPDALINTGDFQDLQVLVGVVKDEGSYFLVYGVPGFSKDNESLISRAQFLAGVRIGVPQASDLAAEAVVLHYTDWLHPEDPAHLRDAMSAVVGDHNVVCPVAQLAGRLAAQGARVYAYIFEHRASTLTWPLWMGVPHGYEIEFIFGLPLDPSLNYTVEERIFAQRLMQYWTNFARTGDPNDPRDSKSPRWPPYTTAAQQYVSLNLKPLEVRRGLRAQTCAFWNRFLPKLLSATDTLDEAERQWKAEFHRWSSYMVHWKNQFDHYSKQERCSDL
PARAMETER MEASURED: pIC50
Scale note: pIC50 = -log10(concentration in M).

// pIC50 lookup, compound = CCN(C)C(=O)Oc1cc(O)c2c(c1)OC(c1ccc(O)cc1)CC2=O (stereo not given) , result: 4.94

// pIC50 lookup, compound = CCN(C)C(=O)Oc1ccc(C2CC(=O)c3c(O)cc(OC(=O)N(C)CC)cc3O2)cc1 (stereo not given) , result: 5.21

// pIC50 lookup, compound = CN(C)C(=O)Oc1ccc(C2CC(=O)c3c(O)cc(OC(=O)N(C)C)cc3O2)cc1 (stereo not given) , result: 4.85

// pIC50 lookup, compound = CON(C)C(=O)Oc1ccc(C2CC(=O)c3c(O)cc(OC(=O)N(C)OC)cc3O2)cc1 (stereo not given) , result: 5.00
